# System: GM-6114
# assay-info: MTT assay, cytotoxicity on normal fibroblasts
# Format: cell-based
# condition-context: human, 48 h, 10 µM
value-kind: Mean Growth Percentage (%)
Provide only the numeric value, understood in %.

Previously resolved entries follow.
1. CCOC(=O)c1c(NC(=O)C2CC2)nn(C)c1Nc1ccccc1 [compound 17] : 65.92
2. COc1ccc(/C=N/NC(=O)c2c(N)n[nH]c2Nc2ccccc2)cc1 [10a] : 110.40
3. CCOC(=O)c1c(NC(=O)c2ccc(OC)c(OC)c2)nn(C)c1Nc1ccccc1 [compound 21] : 85.88
4. COC(=O)c1c(NC(=O)c2cc(OC)c(OC)c(OC)c2)n[nH]c1Nc1ccccc1 [compound 14] : 39.31

Now let's try a different one.
Request: Query the reported Mean Growth Percentage for GM-6114; item: CCOC(=O)c1c(NC(=O)c2c(OC)cccc2OC)nn(C)c1Nc1ccccc1 [compound 20]
Result: 64.71
